# Tested on: mitochondrial cytochrome C oxidase subunit II (COXII) gene
# Type: cell-based, human
# Condition Info: HepG2, 10 μM, 7 days
Marks after values point to notes of the source that are not given here.
Each entry below lists one item and its recorded Average ΔΔCt ± SD COXII-β-actin value.
Readout: Average ΔΔCt ± SD COXII-β-actin

Cc1cn([C@H]2C[C@H](N=[N+]=[N-])[C@@H](CO)O2)c(=O)[nH]c1=O [AZT, 3′-azido-3′-deoxythymidine, reference compound]	0.16 ± 0.44
Nc1nc2c(ncn2COCCO)c(=O)[nH]1 [ACV, 9-(2-hydroxyethoxymethyl)guanine]	−0.54 ± 0.06
Nc1ccn(C2CSC(CO)O2)c(=O)n1 (single isomer, unassigned; (+)) [(+)-BCH-189, (+)-β-2′,3′-dideoxy-3′-thiacytidine]	2.53 ± 0.36^d
